Biological target: HIV-1 CMU02 envelope protein (Env) on pseudovirus (HIV-1 isolate CMU02)
Test: cell-based or functional assay
OBSERVABLE: IC50 (µg/mL), pseudovirus neutralization

The reported value for 1443_C16 (PG16) (TCN-116) (antibody, V domains shown) VH: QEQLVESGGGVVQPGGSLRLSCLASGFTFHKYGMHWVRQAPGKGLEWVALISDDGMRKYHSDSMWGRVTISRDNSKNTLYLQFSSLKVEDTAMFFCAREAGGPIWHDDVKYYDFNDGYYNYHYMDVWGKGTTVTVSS VL: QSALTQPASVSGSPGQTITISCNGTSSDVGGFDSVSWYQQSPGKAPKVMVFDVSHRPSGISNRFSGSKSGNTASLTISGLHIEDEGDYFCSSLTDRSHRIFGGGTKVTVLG in terms of IC50 (µg/mL), pseudovirus neutralization is > 50 µg/mL
